Source: paper PMC9202104

Target: binding of ZIKV EDIII to EDIII-specific neutralizing mAbs (Zika virus, UniProt A0A024B7W1)
Construct: EDIII (residues 298-409 in E protein containing a C-terminal human Fc tag); human Fc (C)
Sequence (A0A024B7W1 588-699): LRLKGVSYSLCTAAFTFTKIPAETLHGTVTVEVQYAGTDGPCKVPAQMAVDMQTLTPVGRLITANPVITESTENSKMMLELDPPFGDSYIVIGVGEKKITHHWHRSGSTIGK
Assay: ELISA competition assay, EDIII-mAb binding
Details: IC50 blocking EDIII binding to mAb Z004, ELISA competition, mAb 0.5 μg/mL
MEASUREMENT NAME: pIC50
// pIC50 is dimensionless: -log10 of concentration (M)

Here Cc1cc2c(C(C)C)c(O)c(O)c(/C=N/n3c(=O)[nH][nH]c3=O)c2c(O)c1-c1c(C)cc2c(C(C)C)c(O)c(O)c(/C=N/n3c(=O)[nH][nH]c3=O)c2c1O [ST087010] was tested on binding of ZIKV EDIII to EDIII-specific neutralizing mAbs (Zika virus, UniProt A0A024B7W1), and its pIC50 came to 4.35
